# MEASUREMENT TARGET: mouse TRPM3α2 (mTRPM3) ion channel (Mus musculus)
# Sequence (J9SQF3 1-1709 isoform J9SQF3-12): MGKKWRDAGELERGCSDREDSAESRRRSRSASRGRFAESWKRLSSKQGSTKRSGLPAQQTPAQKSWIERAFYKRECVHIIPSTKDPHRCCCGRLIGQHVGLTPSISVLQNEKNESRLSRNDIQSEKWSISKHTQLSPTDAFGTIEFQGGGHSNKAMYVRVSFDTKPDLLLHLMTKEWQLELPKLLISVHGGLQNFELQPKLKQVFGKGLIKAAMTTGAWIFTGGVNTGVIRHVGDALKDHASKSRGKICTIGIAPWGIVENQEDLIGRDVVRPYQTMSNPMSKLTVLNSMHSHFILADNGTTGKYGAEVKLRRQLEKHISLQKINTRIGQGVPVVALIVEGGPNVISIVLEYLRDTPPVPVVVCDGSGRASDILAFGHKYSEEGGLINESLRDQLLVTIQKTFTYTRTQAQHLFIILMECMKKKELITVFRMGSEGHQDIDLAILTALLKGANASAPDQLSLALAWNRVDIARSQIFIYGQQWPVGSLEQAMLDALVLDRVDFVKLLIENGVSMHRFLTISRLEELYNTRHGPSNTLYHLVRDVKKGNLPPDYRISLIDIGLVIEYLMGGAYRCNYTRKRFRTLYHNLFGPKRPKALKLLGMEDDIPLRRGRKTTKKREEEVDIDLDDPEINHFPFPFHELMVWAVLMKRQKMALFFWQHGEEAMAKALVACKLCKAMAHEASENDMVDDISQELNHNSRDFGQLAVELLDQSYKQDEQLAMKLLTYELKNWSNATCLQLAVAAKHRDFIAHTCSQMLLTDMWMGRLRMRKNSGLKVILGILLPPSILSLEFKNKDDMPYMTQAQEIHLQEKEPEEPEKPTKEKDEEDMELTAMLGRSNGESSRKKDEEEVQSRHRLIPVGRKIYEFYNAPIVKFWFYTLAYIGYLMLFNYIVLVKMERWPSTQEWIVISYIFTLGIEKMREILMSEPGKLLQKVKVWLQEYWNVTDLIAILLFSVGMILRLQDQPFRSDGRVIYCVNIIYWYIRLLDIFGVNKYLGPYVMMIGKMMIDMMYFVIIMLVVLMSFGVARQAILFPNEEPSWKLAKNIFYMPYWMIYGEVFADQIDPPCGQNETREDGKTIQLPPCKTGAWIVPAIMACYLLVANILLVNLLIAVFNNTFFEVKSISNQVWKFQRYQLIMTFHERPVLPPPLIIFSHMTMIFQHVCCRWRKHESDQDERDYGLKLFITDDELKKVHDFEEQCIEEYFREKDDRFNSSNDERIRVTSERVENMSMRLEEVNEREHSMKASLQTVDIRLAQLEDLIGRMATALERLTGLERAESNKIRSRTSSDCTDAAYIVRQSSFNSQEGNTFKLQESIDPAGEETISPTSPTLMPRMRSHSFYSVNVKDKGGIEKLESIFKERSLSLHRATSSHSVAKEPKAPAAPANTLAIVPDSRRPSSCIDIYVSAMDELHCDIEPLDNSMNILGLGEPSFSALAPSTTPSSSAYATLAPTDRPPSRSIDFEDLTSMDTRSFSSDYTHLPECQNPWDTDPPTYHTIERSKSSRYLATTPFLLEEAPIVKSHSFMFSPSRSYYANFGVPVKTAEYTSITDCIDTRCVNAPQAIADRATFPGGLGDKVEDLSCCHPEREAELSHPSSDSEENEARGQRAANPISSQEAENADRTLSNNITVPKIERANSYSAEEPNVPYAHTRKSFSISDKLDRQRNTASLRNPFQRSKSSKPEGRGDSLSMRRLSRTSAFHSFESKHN
# PROTOCOL TEXT: Monitoring the TRPM3 ion channel driven Ca2+ uptake (Fluo-4 AM assay)
# TEST CONTEXT: mTRPM3alpha2 overexpressing flip-in HEK293 cells, stimulated with Pregnenolone sulfate (PS) 50 μM
pIC50: −log10 of the molar value.
EXPERIMENTAL READOUT: pIC50

Lookup: pIC50 / mouse TRPM3α2 (mTRPM3) ion channel (Mus musculus) / Cc1oc2ccc(OCC3(C(F)F)CC3)cc2c1C(=O)NC(C)(CO)C(N)=O (single isomer, unassigned) [Cpd 014 - En1]
> 6.00

Lookup: pIC50 / mouse TRPM3α2 (mTRPM3) ion channel (Mus musculus) / Cc1oc2ccc(OCC3CC3(F)F)cc2c1C(=O)NC1CCNCC1(F)F (single isomer, unassigned) [Cpd 031 - En4]
> 6.00

Lookup: pIC50 / mouse TRPM3α2 (mTRPM3) ion channel (Mus musculus) / COCC(C)(CO)NC(=O)c1c(C)oc2ccc(OCC3(C(F)(F)F)CC3)cc12 (single isomer, unassigned) [Cpd 060 - En1]
4.70 to 6.00

Lookup: pIC50 / mouse TRPM3α2 (mTRPM3) ion channel (Mus musculus) / Cc1oc2ccc(OCC3CC3)cc2c1C(=O)NC(CO)C(N)C(F)(F)F (single isomer, unassigned) [Cpd 056 - En2]
> 6.00

Lookup: pIC50 / mouse TRPM3α2 (mTRPM3) ion channel (Mus musculus) / Cc1oc2ccc(OCC3CC3)cc2c1C(=O)N[C@H](CO)C(N)=O [Cpd 009]
> 6.00

Lookup: pIC50 / mouse TRPM3α2 (mTRPM3) ion channel (Mus musculus) / Cc1oc2ccc(OCC3CC3(F)F)cc2c1C(=O)NC(CO)CC(F)(F)F (single isomer, unassigned) [Cpd 057 - En1]
> 6.00

Lookup: pIC50 / mouse TRPM3α2 (mTRPM3) ion channel (Mus musculus) / Cc1oc2ccc(OCC(F)F)cc2c1C(=O)N[C@H](C(N)=O)[C@@H](C)O [Cpd 040]
> 6.00

Lookup: pIC50 / mouse TRPM3α2 (mTRPM3) ion channel (Mus musculus) / Cc1oc2ccc(OCC3CCCC3)cc2c1C(=O)NC(C)(CO)C(N)=O (single isomer, unassigned) [Cpd 062 - En1]
> 6.00

Lookup: pIC50 / mouse TRPM3α2 (mTRPM3) ion channel (Mus musculus) / Cc1oc2ccc(OCC3CC3)cc2c1C(=O)NC1CCNCC1(F)F (single isomer, unassigned) [Cpd 024-En2]
> 6.00

Lookup: pIC50 / mouse TRPM3α2 (mTRPM3) ion channel (Mus musculus) / NC(=O)[C@H](CO)NC(=O)c1c(C(F)F)oc2ccc(OCC3CC3)cc12 [Cpd 008]
> 6.00

Lookup: pIC50 / mouse TRPM3α2 (mTRPM3) ion channel (Mus musculus) / Cc1oc2ccc(OCC3CC3(C)C)cc2c1C(=O)NC1CCNCC1(F)F (single isomer, unassigned) [Cpd 033-En2]
4.70 to 6.00

Lookup: pIC50 / mouse TRPM3α2 (mTRPM3) ion channel (Mus musculus) / Cc1oc2ccc(OCC34CC(C)(C3)C4)cc2c1C(=O)NC(C)(CO)C(N)=O (single isomer, unassigned) [Cpd 052 - En1]
> 6.00

Lookup: pIC50 / mouse TRPM3α2 (mTRPM3) ion channel (Mus musculus) / Cc1oc2ccc(OCC3CC3(F)F)cc2c1C(=O)NC1CCNCC1(F)F (single isomer, unassigned) [Cpd 031 - En3]
4.70 to 6.00

Lookup: pIC50 / mouse TRPM3α2 (mTRPM3) ion channel (Mus musculus) / Cc1oc2ccc(OCC3CC3)cc2c1C(=O)NC1CCN(C)CC1 [Cpd 021]
4.70 to 6.00

Lookup: pIC50 / mouse TRPM3α2 (mTRPM3) ion channel (Mus musculus) / Cc1oc2ccc(OCC3CC3)cc2c1C(=O)NC1(CO)CCCNC1=O (single isomer, unassigned) [Cpd 027 - En1]
> 6.00

Lookup: pIC50 / mouse TRPM3α2 (mTRPM3) ion channel (Mus musculus) / Cc1oc2ccc(OCC3CC3(C)C)cc2c1C(=O)NC(C)(CO)C(N)=O (single isomer, unassigned) [Cpd 049 - En4]
> 6.00

Lookup: pIC50 / mouse TRPM3α2 (mTRPM3) ion channel (Mus musculus) / Cc1oc2ccc(OCC(F)F)cc2c1C(=O)N[C@@H](CO)C(N)=O [Cpd 038]
> 6.00

Lookup: pIC50 / mouse TRPM3α2 (mTRPM3) ion channel (Mus musculus) / Cc1oc2ccc(OC[C@H]3C[C@@H]4C[C@@H]4C3)cc2c1C(=O)NC(C)(CO)C(N)=O (single isomer, unassigned) [Cpd 051 - En2]
> 6.00

Lookup: pIC50 / mouse TRPM3α2 (mTRPM3) ion channel (Mus musculus) / Cc1oc2ccc(OCC3CCC3)cc2c1C(=O)NC(C)(C)C(N)=O [Cpd 015]
> 6.00

Lookup: pIC50 / mouse TRPM3α2 (mTRPM3) ion channel (Mus musculus) / Cc1oc2ccc(OC[C@@H]3C[C@@H]4C[C@@H]4C3)cc2c1C(=O)NC(C)(CO)C(N)=O (single isomer, unassigned) [Cpd 050 - En1]
4.70 to 6.00

Lookup: pIC50 / mouse TRPM3α2 (mTRPM3) ion channel (Mus musculus) / Cc1oc2ccc(OC[C@@H]3C[C@@H]4C[C@@H]4C3)cc2c1C(=O)NC(C)(CO)C(N)=O (single isomer, unassigned) [Cpd 050 - En2]
> 6.00

Lookup: pIC50 / mouse TRPM3α2 (mTRPM3) ion channel (Mus musculus) / Cc1oc2ccc(OCC34CC(C)(C3)C4)cc2c1C(=O)NC(C)(CO)C(N)=O (single isomer, unassigned) [Cpd 052 - En2]
> 6.00

Lookup: pIC50 / mouse TRPM3α2 (mTRPM3) ion channel (Mus musculus) / Cc1oc2ccc(OCC(C)C)cc2c1C(=O)NC1CCNCC1(F)F (single isomer, unassigned) [Cpd 042 - En2]
> 6.00

Lookup: pIC50 / mouse TRPM3α2 (mTRPM3) ion channel (Mus musculus) / Cc1oc2ccc(OCCC3CC3)cc2c1C(=O)N[C@H](C(N)=O)[C@@H](C)O [Cpd 012]
> 6.00

Lookup: pIC50 / mouse TRPM3α2 (mTRPM3) ion channel (Mus musculus) / Cc1oc2ccc(OCC3CC3(F)F)cc2c1C(=O)NC(CO)CC(F)(F)F (single isomer, unassigned) [Cpd 057 - En2]
> 6.00

Lookup: pIC50 / mouse TRPM3α2 (mTRPM3) ion channel (Mus musculus) / Cc1oc2ccc(OCC3CC3)cc2c1C(=O)NC1CCCNC1=O (single isomer, unassigned) [Cpd 055 - En1]
> 6.00

Lookup: pIC50 / mouse TRPM3α2 (mTRPM3) ion channel (Mus musculus) / Cc1oc2ccc(OCC3(C(F)F)CC3)cc2c1C(=O)N[C@H](C(N)=O)[C@@H](C)O [Cpd 011]
> 6.00

Lookup: pIC50 / mouse TRPM3α2 (mTRPM3) ion channel (Mus musculus) / Cc1oc2ccc(OCC3CC3)cc2c1C(=O)NC1(CO)COC1 [Cpd 029]
> 6.00

Lookup: pIC50 / mouse TRPM3α2 (mTRPM3) ion channel (Mus musculus) / Cc1oc2ccc(OCC3CC(F)(F)C3)cc2c1C(=O)NC(C)(CO)C(N)=O (single isomer, unassigned) [Cpd 054 - En2]
> 6.00

###

# MEASUREMENT TARGET: mouse TRPM3α2 (mTRPM3) ion channel (Mus musculus)
# Construct: expressed in transfected cells; host or cells: flip-in (Flp-In) HEK293
# PROTOCOL TEXT: Monitoring the TRPM3 ion channel driven Ca2+ uptake (Fluo-4 AM assay)
# Format: cell-based
# TEST CONTEXT: mTRPM3alpha2 overexpressing flip-in HEK293 cells, stimulated with Pregnenolone sulfate (PS) 50 μM
# Protocol: In order to monitor the inhibition of the mouse TRPM3α2 (mTRPM3) ion channel by the compounds of the invention, a cellular system making use of an mTRPM3alpha2 or hTRPM3 overexpressing cell line (flip-in HEK293) was used. […] For mTRPM3, the intracellular Ca^2+ was measured with a Calcium responsive dye, Fluor-4 AMV ester (Invitrogen). […] Channel inhibition was calculated compared to a non-PS stimulated control versus a condition stimulated with PS (50 μM) with vehicle. […]
pIC50: −log10 of the molar value.
Hi there, I'd appreciate the recorded pIC50 for every entry that follows.

Requested field: pIC50. Item: `Cc1oc2ccc(OCC3CC3)cc2c1C(=O)NC1(CO)CCC1`
> 6.00

Requested field: pIC50. Item: Cc1oc2ccc(OCC3CCCC3)cc2c1C(=O)NC(C)(CO)C(N)=O (single isomer, unassigned) [Cpd 062 - En2]
> 6.00

Requested field: pIC50. Item: Cc1oc2ccc(OCC3CC3(C)C)cc2c1C(=O)NC(C)(CO)C(N)=O (single isomer, unassigned) [Cpd 049 - En3]
> 6.00

Requested field: pIC50. Item: COCC(C)(CO)NC(=O)c1c(C)oc2ccc(OCC3(C(F)(F)F)CC3)cc12 (single isomer, unassigned) [Cpd 060 - En2]
> 6.00

Requested field: pIC50. Item: Cc1oc2ccc(OCC3CC3(F)F)cc2c1C(=O)NC(CO)CC(F)(F)F (single isomer, unassigned) [Cpd 057 - En3]
4.70 to 6.00

Requested field: pIC50. Item: `Cc1oc2ccc(OCC3CC3)cc2c1C(=O)N[C@@H](CO)C(N)=O`
> 6.00

Requested field: pIC50. Item: Cc1oc2ccc(OCC(F)F)cc2c1C(=O)NC1(C(N)=O)CCOC1 (single isomer, unassigned) [Cpd 044 - En2]
> 6.00

Requested field: pIC50. Item: Cc1oc2ccc(OCC3CC3)cc2c1C(=O)NC(CO)C(N)C(F)(F)F (single isomer, unassigned) [Cpd 056 - En4]
4.70 to 6.00

Requested field: pIC50. Item: Cc1oc2ccc(OCC3CC3)cc2c1C(=O)NC1(C(N)=O)CCOC1 (single isomer, unassigned) [Cpd 035 - En1]
> 6.00

Requested field: pIC50. Item: `NC(=O)[C@H](CO)NC(=O)c1c(C2CC2)oc2ccc(OCC3CC3)cc12`
> 6.00

Requested field: pIC50. Item: Cc1oc2ccc(OCC3CCC3)cc2c1C(=O)NC(C)(CO)C(N)=O (single isomer, unassigned) [Cpd 053 - En1]
> 6.00

Requested field: pIC50. Item: Cc1oc2ccc(OCC(F)(F)F)cc2c1C(=O)NC(C)(CO)C(N)=O (single isomer, unassigned) [Cpd 047 - En1]
4.70 to 6.00

Requested field: pIC50. Item: Cc1oc2ccc(OCC3CC3)cc2c1C(=O)NC(C)(CO)C(N)=O (single isomer, unassigned) [Cpd 017 - En2]
> 6.00
